# TARGET OR TEST SYSTEM: T1, murine CD22 protein (ACROBiosystems, SI2-M52Ha) (murine, UniProt P35329 22-708)
# T1 construct: extracellular domain; also called murine CD22-ECD; murine CD22-ECD-His
# T1 sequence (looked up): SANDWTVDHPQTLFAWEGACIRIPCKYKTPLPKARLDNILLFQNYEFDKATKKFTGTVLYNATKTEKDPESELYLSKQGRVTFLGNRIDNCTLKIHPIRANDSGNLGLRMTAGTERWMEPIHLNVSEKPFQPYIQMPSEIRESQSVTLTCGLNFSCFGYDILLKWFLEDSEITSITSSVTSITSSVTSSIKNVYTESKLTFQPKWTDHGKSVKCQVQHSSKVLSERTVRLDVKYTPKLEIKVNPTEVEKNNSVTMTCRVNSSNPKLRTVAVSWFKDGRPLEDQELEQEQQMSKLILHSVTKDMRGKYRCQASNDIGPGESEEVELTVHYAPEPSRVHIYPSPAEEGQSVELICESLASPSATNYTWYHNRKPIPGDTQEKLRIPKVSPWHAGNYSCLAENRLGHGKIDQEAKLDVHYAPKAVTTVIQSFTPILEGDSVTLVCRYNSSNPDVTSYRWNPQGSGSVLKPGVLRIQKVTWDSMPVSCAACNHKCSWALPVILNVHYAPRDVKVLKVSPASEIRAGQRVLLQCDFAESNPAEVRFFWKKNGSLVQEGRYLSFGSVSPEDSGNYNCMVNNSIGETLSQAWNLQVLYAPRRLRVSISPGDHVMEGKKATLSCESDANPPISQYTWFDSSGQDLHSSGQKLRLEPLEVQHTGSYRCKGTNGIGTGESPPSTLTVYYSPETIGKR
# PROTOCOL: ELISA, coated murine CD22, 100 nM Ab
RECORDED METRIC: OD450 (OD450)

>>> assay_value("F2.343.16 human-murine chimeric antibody (antibody, human IgG1, lambda, V domains shown, Chimeric, human IgG1 / lambda; VL tied by name) VH: QVQLKQSGPGLVQPSQSLSITCTVSGFSLTGYGVQWVRQSPGKGLEWLGVIWGGGGTDYNAAFISRLNIIKDNSKSQVFFKMNSLQADDTAIYYCARYSKYGHFDVWGTGTAVTVSS VL: QAVVTQESALTTSPGETVTLTCRSSTGAVTTSNYANWVQEKPDHLFTGLIGGTYNRVPGVPARFSGSLIGDKAALTITGAQTEDEAIYFCALWYSNHFWVFGGGTKLTVLG")
0.07
>>> assay_value("F1.60.9 human-murine chimeric antibody (antibody, human IgG1, kappa, V domains shown, Chimeric, human IgG1 / kappa) VH: QVQLKESGPGLVAPSQSLSITCTVSGLSLNNYGVSWVRQPPGKGLEWLGVIWGDGSTNYHSALISRLSISKDNSKSQVFLKLNSLHTDDTATYYCAINWGDYWGQGTTLIVSS VL: DIKMTQSPSSMNASLGERVTITCKASQDINSYLSWFQQKPGKSPKILIYRANRLIDGVPSRFSGSGSGQDYSLTISSLEYEDMGIYYCLQYGVFPLTFGAGTKLELKR")
0.08
>>> assay_value("F2.127.11 human-murine chimeric antibody (antibody, human IgG1, lambda, V domains shown, Chimeric, human IgG1 / lambda; VL tied by name) VH: QVTLKESGPGILQPSQTLSLTCSFSGFSLSTFGMGVGWIRQPSGKGLEWLAHIWWDDDKHYNPALKSRLTISKDTSRNQVFLKIANVDTADGATYFCARDNWVSSLDYWGQGTSVIVSS VL: QPVITQSSSASFSLGASAELTCTLSSQHSTYTIEWYQQQPLKPPKYVMGLKKDGSHSTGDGIPDRFSGSSSGADRYLSISNIQPEDEAIYICGVSDTIKEQFVYVFGGGTKVTVLG")
0.1

Data provenance is patent US20240084003A1.
